Organism: Mus musculus
Assay: The initial growth rate of cells in the presence at the screen concentration 100 mM in leukemic cells (L1210) of mice
Assay type: functional
Provide the reported Control of each item.
Please reply with the bare figure in % and do not write the unit itself.

Please fill in: Control reported for `COc1nc(CO)c([N+](=O)[O-])c(N2CCOCC2)n1` = 100

Recorded result, `COc1nc(N)c([N+](=O)[O-])c(C(Br)Br)n1` , Control: 0

Recorded result, `COc1nc(C=O)c([N+](=O)[O-])c(N(C)C)n1` , Control: 0

Lookup result for `CCOc1nc(C(Br)Br)c([N+](=O)[O-])c(N2CCOCC2)n1` ; measured Control: 13

Value of measured Control for the entry `Cc1nc(Cl)nc(Cl)c1[N+](=O)[O-]` : 104

Reported Control ( `CNc1nc(OC)nc(C(Br)Br)c1[N+](=O)[O-]` ) = 0

Just so you know, measured Control for `COc1nc(OC)c([N+](=O)[O-])c(C(Br)Br)n1` came out at 0

Control reading for `COc1nc(CBr)c([N+](=O)[O-])c(OC)n1` : 0

get_value(item= `CCN(CC)c1nc(OC)nc(C(Br)Br)c1[N+](=O)[O-]` , readout=Control) returns 0

So, `COc1nc(C(Br)Br)c([N+](=O)[O-])c(N2CCOCC2)n1` ? Its Control was 0

So, `CCOc1nc(OCC)c([N+](=O)[O-])c(C(Br)Br)n1` ? Its Control was 0

Record `COc1nc(C)c([N+](=O)[O-])c(OC)n1` . Reported Control: 104

----------
Species on record: Mus musculus
Assay: Concentration required to decrease the growth rate to 50% of control
Format: functional, organism-based
Note to self: use 1 only for IC50 readings below 2000 nM; a reading exactly at 2000 nM still gets 0.

-- ask Strictly below 2000 nM in IC50? `CCOc1nc(C(Br)Br)c([N+](=O)[O-])c(N2CCOCC2)n1`
-- reply 0

-- ask Bench note: check whether `COc1nc(C(Br)Br)c([N+](=O)[O-])c(N2CCCC2)n1` shows IC50 below 2000 nM
-- reply 1

-- ask Does this molecule meet the criterion IC50 < 2000 nM? `COc1nc(CBr)c([N+](=O)[O-])c(OC)n1`
-- reply 0

-- ask Does this molecule meet the criterion IC50 < 2000 nM? `CCN(CC)c1nc(OC)nc(C(Br)Br)c1[N+](=O)[O-]`
-- reply 0

-- ask In plain terms, does `CCCOc1nc(C(Br)Br)c([N+](=O)[O-])c(N2CCOCC2)n1` come in under 2000 nM for IC50?
-- reply 0

----------
Species on record: Mus musculus
Assay: Concentration required to decrease the growth rate to 50% of control
Format: functional, organism-based
pIC50: −log10 of the molar value.
Assign T to entries whose pIC50 meets or exceeds 6; assign F to the rest.

-- ask Record `CNc1nc(OC)nc(C(Br)Br)c1[N+](=O)[O-]` ; criterion: pIC50 no lower than 6. Met?
-- reply F

-- ask Does the molecule `COc1nc(C=O)c([N+](=O)[O-])c(N(C)C)n1` have recorded pIC50 that is 6 or more?
-- reply F

-- ask Determine whether measured pIC50 meets or exceeds 6 for `COc1nc(C(Br)Br)c([N+](=O)[O-])c(N2CCOCC2)n1`
-- reply T

-- ask // inclusive: pIC50 at least 6? input: `COc1nc(OC)c([N+](=O)[O-])c(C(Br)Br)n1`
-- reply F

-- ask Evaluate `COc1nc(C(Br)Br)c([N+](=O)[O-])c(N2CCCCC2)n1` : pIC50 at minimum 6?
-- reply T

-- ask hey, is pIC50 for this one >= 6? `CCOc1nc(OCC)c([N+](=O)[O-])c(C(Br)Br)n1`
-- reply F
